Attribution: PubChem BioAssay (NCATS)

Molecular target: Luciferin 4-monooxygenase (Photinus pyralis)
Test: Biochemical firefly luciferase enzyme assay for NPC (AID 624030); further: nearly all actives have a fitted effect of over 70% in size
Conditions: purified P. pyralis luciferase, luminescence, 5 min; series mostly up to 58.6 µM
Inconclusive results are not listed. Calls of active or inactive are those of the source. The call rests on the fitted dose curve; in most records, active means well fitted inhibition curve with a large enough effect; inconclusive means small, poorly fitted or top-dose-only effect; inactive means flat fitted curve, though single readings scatter. Numbered stars: 1 amine (or outer) side, 2 acyl side, 3 side chain; on linkers, the order of the positions; unused ones are H or OH. Bridge positions count the residues as written; N and C are the ends. Square brackets hold non-standard residues; d marks the D form. Peptide text beside a SMILES is read from it. * marks the point of attachment. ξ: configuration not given here. ΔAla(Z-3-ureido) = NC(=O)N/C=C(\N)C(=O)O; X1 = NC1=NCCC(C(N[*:1])C(=O)[*:2])N1; ξβ3hOrn = NCCCC(N)CC(=O)*; Dap = NC[CH](N)C(=O)O
Labels: T for active, F for inactive

| MOLECULE | QUALITATIVE_LABEL |
| --- | --- |
| C[N+](C)(C)CCOP(=O)(O)OP(=O)([O-])OCC1OC(n2ccc(N)nc2=O)[C@H](O)[C@@H]1O (stereo not given in full) | F |
| Fc1ccc(C2CCNCC2COc2ccc3c(c2)OCO3)cc1 (stereo not given) | F |
| CC(N)C(=O)NCC(=O)NC1CSSCC(C(=O)O)NC(=O)C(CO)NC(=O)C(C(C)O)NC(=O)C(Cc2ccccc2)NC(=O)C(C(C)O)NC(=O)C(CCCCN)NC(=O)C(Cc2c[nH]c3ccccc23)NC(=O)C(Cc2ccccc2)NC(=O)C(Cc2ccccc2)NC(=O)C(CC(N)=O)NC(=O)C(CCCCN)NC1=O (stereo not given) | F |
| O=P(O)(O)OC[C@@H](O)CO | F |
| CCC[C@]1(CCc2ccccc2)CC(O)=C([C@H](CC)c2cccc(NS(=O)(=O)c3ccc(C(F)(F)F)cn3)c2)C(=O)O1 | F |
| CC1NC(=O)C(N)CNC(=O)C(C2CCN=C(N)N2)NC(=O)/C(=C/NC(N)=O)NC(=O)C(CNC(=O)CC(N)CCCN)NC1=O (stereo not given) | F |
| CC[C@H](c1ccccc1)c1noc(CCN(CC)CC)n1 | F |
| Cc1ccccc1C(=O)N1CC/C(=N/OS(=O)(=O)O)c2ccc(Cl)cc21 | F |
| c1cnc2cc3c(cc2n1)[C@@H]1CNC[C@@H]3C1 | F |
| CO/N=C(\C(=O)N[C@@H]1C(=O)N2C(C(=O)OCOC(=O)C(C)(C)C)=C(C)CS[C@H]12)c1csc(N)n1 | F |
| CC(C)N(Cc1ccccc1)C(C)C (tested in a mixture with another compound) | F |
| CC12C=CC(=O)C=C1CCC1C2C(O)CC2(C)C1CCC2(O)C(=O)COC(=O)CCC(=O)O (stereo not given) | F |
| NCCCC(N)CC(=O)NCC1NC(=O)C(CO)NC(=O)C(N)CNC(=O)C(C2CCN=C(N)N2)NC(=O)/C(=C/NC(N)=O)NC1=O (stereo not drawn) (H-[Dap]S[Dap](ξβ3hOrn)[ΔAla(Z-3-ureido)][X1]; lactam 1-C; configuration not given here) | F |
| CC1(C)C(/C=C/C=C/C=C/C=C2\N(CCCCS(=O)(=O)O)c3ccc4ccccc4c3C2(C)C)=[N+](CCCCS(=O)(=O)[O-])c2ccc3ccccc3c21 | T |
| C#C[C@@]1(OC(C)=O)CC[C@H]2[C@@H]3CCC4=CC(=O)CC[C@@H]4[C@H]3CC[C@@]21C | F |
| CCC(=O)C(Cc1ccccc1)(Cc1ccccc1)CC(C)N(C)C (stereo not given) | F |
| CC(=O)OCC(=O)[C@@]1(O)[C@H](C)C[C@H]2C3C[C@H](F)C4=CC(=O)C=CC4(C)C3[C@@H](O)CC21C (stereo not given in full) | F |
| CC(C)CC(NC(=O)C(COC(C)(C)C)NC(=O)C(Cc1ccc(O)cc1)NC(=O)C(CO)NC(=O)C(Cc1c[nH]c2ccccc12)NC(=O)C(Cc1cnc[nH]1)NC(=O)C1CCC(=O)N1)C(=O)NC(CCCN=C(N)N)C(=O)N1CCCC1C(=O)NNC(N)=O (stereo not given) | F |
| COc1cc2c(cc1OC)[C@@H](Cc1cc(OC)c(OC)c(OC)c1)[N@+](C)(CCCOC(=O)CC/C=C/CCC(=O)OCCC[N@+]1(C)CCc3cc(OC)c(OC)cc3[C@H]1Cc1cc(OC)c(OC)c(OC)c1)CC2 | F |
| CCC[C@@H]1CC(C(=O)NC(C2O[C@H](SC)C(OP(=O)(O)O)[C@H](O)[C@H]2O)[C@H](C)Cl)N(C)C1 (stereo not given in full) | F |

====

Assay: qHTS assay for small molecule agonists of the antioxidant response element (ARE) signaling pathway measured by Nrf2-dependant transcriptional activity - cell viability counter screen (AID 720653); further: on the % scale 0 is the no-effect control and ±100 the full control effect
Details: ARE-bla HepG2 viability, CellTiter-Glo ATP luminescence, 16 h; stronger effect = lower value
Inconclusive results are not listed.
Item-by-item account of max response
REPORTED_ENDPOINT: max response (%)

| COMPOUND | REPORTED_ENDPOINT | VALUE_REPORTED |
| --- | --- | --- |
| CN(C)C(=O)Nc1ccccc1 | max response | 1.07 |
| Cc1ccc(C(C)(C)C)c(O)c1 | max response | 6.52 |
| C=CCCCCCCCCC=O | max response | 3.17 |
| CCOC(=O)C(C)Oc1ccc(Oc2nc3ccc(Cl)cc3o2)cc1 (stereo unspecified) | max response | 6.64 |
| NC(=O)Cc1cccc2ccccc12 | max response | -4.7 |
| CC/C=C/CCCCCCCCCCOC(C)=O | max response | -0.636 |
| CCCCOCCOCCOCCO | max response | 5.3 |
| CSc1ccc(Cl)cc1 | max response | -9.05 |
| CCCCCCC(C)OC(=O)COc1nc(F)c(Cl)c(N)c1Cl (stereo unspecified) | max response | 17 |
| CCN(Cc1cccc(S(=O)(=O)O)c1)c1ccc(C(=C2C=CC(=[N+](CC)Cc3cccc(S(=O)(=O)[O-])c3)C=C2)c2ccccc2)cc1 | max response | -9.88 |
| CCCCCCCCCCCCCCCCCC#N | max response | 11.9 |
| CCCCCCCCCCCCO | max response | -4.36 |
| CCCCCCCCCCCCCC(=O)OC | max response | -15.8 |
| CC(C)OC(=O)c1ccccc1C(=O)OC(C)C | max response | 0.0901 |
| CCCCCCCCCCCCCCC(=O)OC | max response | -2.69 |
| CC1COCc2cc3c(cc21)C(C)(C)C(C)C3(C)C (stereo unspecified) | max response | -2.78 |
| CC(COc1ccc(C(C)(C)C)cc1)OS(=O)OCCCl (stereo unspecified) | max response | -25.1 |
| CCCCCCc1ccc(N)cc1 | max response | -14.6 |
| CC(C)=CCC[C@@H](C)[C@H]1CC[C@@]2(C)C3=C(CC[C@]12C)[C@@]1(C)CC[C@H](O)C(C)(C)[C@@H]1CC3 | max response | 3.07 |
| CCCCC(CC)COC(=O)CS (stereo unspecified) | max response | 1.32 |
| CCCCCCCC(=O)OC | max response | 0.0694 |

====

Assay: qHTS for Inhibitors of Plasmodium falciparum (DD2) proliferation (AID 504314)
Conditions: P. falciparum Dd2 in erythrocytes, SYBR Green growth, 72 h; series mostly up to 1.12 µM
Results filed as inconclusive are left out. The source made the active and inactive calls. Calls come from the whole dose curve; as a rule, active = well fitted inhibition curve with a large enough effect; inconclusive = small, poorly fitted or top-dose-only effect; inactive = flat fitted curve, though single readings scatter.
Labels: T = active, F = inactive

| MOLECULE | QUALITATIVE_LABEL |
| --- | --- |
| C#CCCOC(=O)N1C2=NC(C(=O)OC)=C(C(=O)OC)[C@@H]3N(CC#CC)c4ccccc4[C@]23C[C@H]1C(=O)OC | F |
| CCOC(=O)[C@@]1([C@@H](NC(=O)OC)c2cccc(F)c2)CCCC1=O | F |
| COC(=O)CCCC1=CC2=C(c3ccccc3)C(=O)C(C)(OC(=O)C3CCCC3)C(=O)C2=CN1Cc1ccccc1 (stereo unspecified) | F |
| COC(=O)C1=C(C)N(Cc2ccccc2)C(=NCCc2cccnc2)NC1c1ccc(Br)cc1 (stereo unspecified) | T |
| CCOC(=O)NN=C1C[C@@H](O)[C@@H](O)[C@@H]2[C@H]3C(=O)N(CC)C(=O)[C@@H]3CC[C@@H]12 | F |
| CCCCC1=CC2=CC(=O)C(C)(OC(=O)CC)C(=O)C2=CN1c1ccncc1 (stereo unspecified) | F |

====

Target: Luciferin 4-monooxygenase (Photinus pyralis)
Assay: Biochemical firefly luciferase enzyme assay for NPC (AID 624030); further: nearly all actives have a fitted effect of over 70% in size
Conditions: purified P. pyralis luciferase, luminescence, 5 min; series mostly up to 58.6 µM
Inconclusive results are not listed. Calls of active or inactive are those of the source. Calls come from the whole dose curve; as a rule, active = well fitted inhibition curve with a large enough effect; inconclusive = small, poorly fitted or top-dose-only effect; inactive = flat fitted curve, though single readings scatter.
Labels: 1 (yes) (active), 0 (no) (inactive)

| MOLECULE | QUALITATIVE_LABEL |
| --- | --- |
| CC#CC[C@@H](C)[C@@H](O)/C=C/[C@H]1[C@H]2c3cccc(CCCC(=O)O)c3O[C@H]2C[C@@H]1O | 0 (no) |
| CC(=O)CC/C=C(\C)CC/C=C(/C)CC/C=C(\C)CCC=C(C)C | 0 (no) |
| COc1ccc(-c2nc3ccc(C4=C(C)CC(=O)NN4)cc3[nH]2)cc1 | 1 (yes) |
| CC(=O)C1(O)CCC2C3CC(C)C4=CC(=O)CCC4(C)C3CCC21C (stereo not drawn) | 0 (no) |
| CO[C@H]1C[C@@H](O[C@@H]2[C@@H](C)O[C@@H](O[C@@H]3/C(C)=C/CC4C[C@@H](C[C@]5(C=C[C@@H](C)[C@H](C6CCCCC6)O5)O4)OC(=O)[C@@H]4C=C(C)[C@@H](O)[C@H]5OC/C(=C\C=C\[C@@H]3C)[C@]54O)C[C@H]2OC)O[C@@H](C)[C@@H]1O | 0 (no) |
| CC(NC(CCc1ccccc1)C(=O)O)C(=O)N1CCCC1C(=O)O (stereo not drawn) | 0 (no) |
| Cc1ccc(C(=O)[C@H](C)CN2CCCCC2)cc1 | 0 (no) |
| CCN1CCC[C@@H]1CNC(=O)c1cc(S(=O)(=O)CC)ccc1OC | 0 (no) |
| COc1cc(/C=C/C(=O)O[C@H]2CC[C@]34C[C@]35CC[C@]3(C)[C@@H]([C@H](C)CCC=C(C)C)CC[C@@]3(C)C5CCC4C2(C)C)ccc1O (stereo partly drawn) | 0 (no) |
| C=C[C@]1(C)C[C@@H](OC(=O)CO)[C@]2(C)C(C)CC[C@]3(CCC(=O)[C@H]32)[C@@H](C)[C@@H]1O (stereo partly drawn) | 0 (no) |
| CC[C@H]1OC(=O)C[C@@H](O)[C@H](C)[C@@H](O[C@@H]2O[C@H](C)C[C@H](N(C)C)[C@@H]2O)[C@@H](CC=O)C[C@@H](C)C(=O)/C=C\[C@]2(C)O[C@H]2[C@@H]1C | 0 (no) |
| CCC(=O)OCC(=O)C1(OC(=O)CC)C(C)CC2C3CCC4=CC(=O)C=CC4(C)C3(Cl)C(O)CC21C (stereo not drawn) | 0 (no) |
| CC(CSC(=O)c1ccccc1)C(=O)N1CC(Sc2ccccc2)CC1C(=O)O (stereo not drawn) | 0 (no) |
